Target: bovine carbonic anhydrase (BCA) (Bos taurus, UniProt P00921)
Sequence (P00921 whole entry): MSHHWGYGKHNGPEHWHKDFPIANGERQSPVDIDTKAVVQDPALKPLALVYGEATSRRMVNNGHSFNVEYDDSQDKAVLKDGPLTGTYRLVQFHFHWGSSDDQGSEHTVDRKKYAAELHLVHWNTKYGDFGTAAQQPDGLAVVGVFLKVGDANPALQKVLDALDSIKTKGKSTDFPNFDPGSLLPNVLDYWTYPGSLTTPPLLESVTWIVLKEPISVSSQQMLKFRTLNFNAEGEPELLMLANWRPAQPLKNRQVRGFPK
recordedMetric: Kd (µM)

# molecule, systemTested, unitTag, measuredValue
rows = [
    ("Cc1ccc(S(N)(=O)=O)cc1 [4-methylbenzene sulfonamide]", "bovine carbonic anhydrase (BCA) (Bos taurus, UniProt P00921)", "µM", 0.29),
]
